System: Pseudomonas aeruginosa
Assay: Antimicrobial activity against Pseudomonas aeruginosa ATCC9027 assessed as diameter of growth inhibition zone at 1 mg/ml after 24 hr by agar cup diffusion method
Assay type: functional
Details: ATCC9027, 24 h, read-out: IZ
MEASURED_ATTRIBUTE: zone of inhibition at 1000 µg/mL (mm)

| MOLECULE | TARGET_OR_SYSTEM | UNITS_OF_MEASURE | RECORDED_MEASUREMENT |
| --- | --- | --- | --- |
| CCOC(=O)c1c(NC(C)=O)sc(C(N)=O)c1C | Pseudomonas aeruginosa | mm | 12 |
| CC(=O)CSc1nc2sc(C(N)=O)c(C)c2c(=O)n1-c1ccccc1 | Pseudomonas aeruginosa | mm | 12 |
| CC1(C)S[C@@H]2[C@H](NC(=O)[C@H](N)c3ccccc3)C(=O)N2[C@H]1C(=O)O [AMPICILLIN] | Pseudomonas aeruginosa | mm | 18 |
| Cc1c(C(N)=O)sc2nc[nH]c(=O)c12 | Pseudomonas aeruginosa | mm | 12 |
| Cc1c(C(N)=O)sc2nc(S(C)(=O)=O)n(-c3ccccc3)c(=O)c12 | Pseudomonas aeruginosa | mm | 12 |
| Cc1c(C(N)=O)sc2nc(C)n(/N=C3\SCC(=O)N3c3ccccc3)c(=O)c12 | Pseudomonas aeruginosa | mm | 12 |
| Cc1c(C(N)=O)sc2nc(C)n(/N=c3\scc(-c4ccccc4)n3Cc3ccccc3)c(=O)c12 | Pseudomonas aeruginosa | mm | 17 |
| Cc1c(C(N)=O)sc2nc(S(=O)(=O)Cc3ccccc3)n(-c3ccccc3)c(=O)c12 | Pseudomonas aeruginosa | mm | 12 |
| Cc1c(C(N)=O)sc2nc(SCC(=O)Nc3ccccc3)n(-c3ccccc3)c(=O)c12 | Pseudomonas aeruginosa | mm | 12 |
| CCCn1cnc2sc(C(N)=O)c(C)c2c1=O | Pseudomonas aeruginosa | mm | 12 |
| Cc1c(C(N)=O)sc2nc(C)n(/N=c3\scc(-c4ccc(Br)cc4)n3-c3ccccc3)c(=O)c12 | Pseudomonas aeruginosa | mm | 12 |
| Cc1c(C(N)=O)sc2nc(SCC3CO3)n(-c3ccccc3)c(=O)c12 (stereo not drawn) | Pseudomonas aeruginosa | mm | 17 |
| Cc1c(C(N)=O)sc2ncn(C3CCCCC3)c(=O)c12 | Pseudomonas aeruginosa | mm | 12 |
| Cc1c(C(N)=O)sc2nc(SCC(O)CN3CCCCC3)n(-c3ccccc3)c(=O)c12 (stereo not drawn) | Pseudomonas aeruginosa | mm | 12 |
| Cc1c(C(N)=O)sc2nc(C)n(/N=C3\SCC(=O)N3Cc3ccccc3)c(=O)c12 | Pseudomonas aeruginosa | mm | 12 |
| Cc1c(C(N)=O)sc2ncn(CCO)c(=O)c12 | Pseudomonas aeruginosa | mm | 17 |
| Cc1c(C(N)=O)sc2nc(SCC(=O)Nc3ccc(Cl)cc3)n(-c3ccccc3)c(=O)c12 | Pseudomonas aeruginosa | mm | 12 |
| Cc1c(C(N)=O)sc2nc(SCC(O)CN3CCOCC3)n(-c3ccccc3)c(=O)c12 (stereo not drawn) | Pseudomonas aeruginosa | mm | 12 |
| Cc1c(C(N)=O)sc2nc(C)n(/N=c3\scc(-c4ccc(Br)cc4)n3Cc3ccccc3)c(=O)c12 | Pseudomonas aeruginosa | mm | 12 |
| CCS(=O)(=O)c1nc2sc(C(N)=O)c(C)c2c(=O)n1-c1ccccc1 | Pseudomonas aeruginosa | mm | 12 |
| Cc1c(C(N)=O)sc2ncn(Cc3ccccc3)c(=O)c12 | Pseudomonas aeruginosa | mm | 16 |
| Cc1c(C(N)=O)sc2nc(S)n(-c3ccccc3)c(=O)c12 | Pseudomonas aeruginosa | mm | 12 |
| Cc1c(C(N)=O)sc2nc(SCc3ccccc3)n(-c3ccccc3)c(=O)c12 | Pseudomonas aeruginosa | mm | 12 |
| CCOC(=O)CSc1nc2sc(C(N)=O)c(C)c2c(=O)n1-c1ccccc1 | Pseudomonas aeruginosa | mm | 12 |
| Cc1c(C(N)=O)sc2nc(C)n(NC(=S)NCc3ccccc3)c(=O)c12 | Pseudomonas aeruginosa | mm | 12 |
| Cc1c(C(N)=O)sc2ncn(-c3ccccn3)c(=O)c12 | Pseudomonas aeruginosa | mm | 12 |
| CCSc1nc2sc(C(N)=O)c(C)c2c(=O)n1-c1ccccc1 | Pseudomonas aeruginosa | mm | 12 |
| Cc1ccc(NC(=O)CSc2nc3sc(C(N)=O)c(C)c3c(=O)n2-c2ccccc2)cc1 | Pseudomonas aeruginosa | mm | 12 |
| Cc1c(C(N)=O)sc2nc(C)n(N)c(=O)c12 | Pseudomonas aeruginosa | mm | 17 |
| Cc1c(C(N)=O)sc2nc(C)n(NC(=S)Nc3ccccc3)c(=O)c12 | Pseudomonas aeruginosa | mm | 12 |
| Cc1c(C(N)=O)sc2nc(C)n(/N=c3\scc(-c4ccc(Cl)cc4)n3Cc3ccccc3)c(=O)c12 | Pseudomonas aeruginosa | mm | 17 |
| Cc1c(C(N)=O)sc2nc(C)n(/N=c3\scc(-c4ccc(Cl)cc4)n3-c3ccccc3)c(=O)c12 | Pseudomonas aeruginosa | mm | 12 |
| CSc1nc2sc(C(N)=O)c(C)c2c(=O)n1-c1ccccc1 | Pseudomonas aeruginosa | mm | 12 |

====

Test system: Candida albicans
Test: Antimicrobial activity against Candida albicans ATCC2091 assessed as diameter of growth inhibition zone at 1 mg/ml after 48 hr by agar cup diffusion method
Assay type: functional
Settings: ATCC2091, 48 h, read-out: IZ

| COMPOUND | UNITS_OF_MEASURE | zone of inhibition at 1000 µg/mL |
| --- | --- | --- |
| Cc1c(C(N)=O)sc2nc(C)n(/N=c3\scc(-c4ccc(Br)cc4)n3-c3ccccc3)c(=O)c12 | mm | 15 |
| CCOC(=O)CSc1nc2sc(C(N)=O)c(C)c2c(=O)n1-c1ccccc1 | mm | 15 |
| Cc1c(C(N)=O)sc2nc(SCC(O)CN3CCOCC3)n(-c3ccccc3)c(=O)c12 (stereo not given) | mm | 15 |
| Cc1c(C(N)=O)sc2nc(C)n(/N=c3\scc(-c4ccc(Cl)cc4)n3-c3ccccc3)c(=O)c12 | mm | 15 |
| Cc1c(C(N)=O)sc2ncn(Cc3ccccc3)c(=O)c12 | mm | 15 |
| CCS(=O)(=O)c1nc2sc(C(N)=O)c(C)c2c(=O)n1-c1ccccc1 | mm | 15 |
| Cc1c(C(N)=O)sc2nc(C)n(/N=c3\scc(-c4ccc(Br)cc4)n3Cc3ccccc3)c(=O)c12 | mm | 15 |
| CCOC(=O)c1c(NC(C)=O)sc(C(N)=O)c1C | mm | 15 |
| Cc1c(C(N)=O)sc2nc(SCC(=O)Nc3ccc(Cl)cc3)n(-c3ccccc3)c(=O)c12 | mm | 15 |
| Cc1c(C(N)=O)sc2nc(C)n(/N=C3\SCC(=O)N3Cc3ccccc3)c(=O)c12 | mm | 16 |

====

Tested on: Candida albicans
Test: Antimicrobial activity against Candida albicans ATCC2091 assessed as diameter of growth inhibition zone at 1 mg/ml after 48 hr by agar cup diffusion method
Assay type: functional
Settings: ATCC2091, 48 h, read-out: IZ
// reported zone of inhibition at 1000 µg/mL for each item listed
MEASURED_ATTRIBUTE: zone of inhibition at 1000 µg/mL (mm)

| SMILES_DATA | TARGET_OR_SYSTEM | UNITS_OF_MEASURE | RECORDED_MEASUREMENT |
| --- | --- | --- | --- |
| Cc1c(C(N)=O)sc2nc[nH]c(=O)c12 | Candida albicans | mm | 15 |
| Cc1ccc(NC(=O)CSc2nc3sc(C(N)=O)c(C)c3c(=O)n2-c2ccccc2)cc1 | Candida albicans | mm | 15 |
| Cc1c(C(N)=O)sc2nc(SCc3ccccc3)n(-c3ccccc3)c(=O)c12 | Candida albicans | mm | 15 |

// data source = ChEMBL document CHEMBL3046848
